- experimental details: protein stability index of a GFP-peptide fusion (yeast GPS) (PSI 1-4); higher = more stable; sorted into four equal gates, so the index is relative within each strain
- run conditions: ubr1∆
test readout: protein stability index
Give the figure only, with no unit attached.

Looking up ECSKDMKEDGLSFVDIV [SIR4] , I found its protein stability index recorded as 3.03

Looking up DIEQLEYSRDCFCEDHC [RPB3] , I found its protein stability index recorded as 2.61

Looking up LMEIHNILKVDSNSSSS [RGR1] , I found its protein stability index recorded as 2.42

Looking up PTGKEEGDGAKAAISFG [YJL041W/NSP1] , I found its protein stability index recorded as 3.38

Looking up ENFAKGEHISAIVPGQS [SWP82] , I found its protein stability index recorded as 3.05

Looking up KLSCIQLNCIDTQFTKL [SRB8] , I found its protein stability index recorded as 2.61

Looking up LIIIAANTPVLRKSELE [RPL30] , I found its protein stability index recorded as 2.77

Looking up WEISNPDFLSKYSAITS [NUT1] , I found its protein stability index recorded as 1.59

Looking up KKAVVKGTNGKKALKVR [RPL25] , I found its protein stability index recorded as 2.75

Looking up DRHIGCAMSGLTADARS [PUP2] , I found its protein stability index recorded as 2.69

Looking up NENETRDKVCKQINEAR [PGD1] , I found its protein stability index recorded as 3.09

Looking up EEYDDDDDNSNVDYYNV [SNF2] , I found its protein stability index recorded as 3.06

Looking up DNFSPHQNVIIGSNGSG [SMC3] , I found its protein stability index recorded as 3.28

Looking up SMSGRISAKDMGQGLCN [BRR2] , I found its protein stability index recorded as 3.19

Looking up HAGTAIGIMASDGIVLA [PRE9] , I found its protein stability index recorded as 2.42
